Each record here notes measured melting point.

melting point in this record for CSc1cc(C(=O)N2CCN(CCN3CCc4ncccc4C3)C[C@H]2Cc2ccc(C(F)(F)F)cc2)cc(C(F)(F)F)c1.Cl.Cl : 190 to 210 °C

melting point in this record for COC[C@@H]1CN(CCN2CCN(C(=O)c3cc(C(F)(F)F)cc(C(F)(F)F)c3)[C@H](Cc3ccc(C)c(O)c3)C2)CCO1.Cl.Cl [Example 5-(1)] : 207 to 210 °C

melting point in this record for COc1cc(C(=O)N2CCN(Cc3cnn(C)c3)C[C@H]2Cc2ccc(F)cc2)cc(C(F)(F)F)c1.Cl : 225.6 to 228.4 °C

melting point in this record for Cl.Cl.O=C(c1cc(C(F)(F)F)cc(C(F)(F)F)c1)N1CCN(Cc2c[nH]c3cccnc23)C[C@H]1Cc1ccc(Cl)c(O)c1 : 208 to 211 °C

melting point in this record for C[C@@H]1CN(CCN2CCN(C(=O)c3cc(Cl)cc(C(F)(F)F)c3)[C@H](Cc3ccc(Cl)c(O)c3)C2)C[C@H](C)O1.Cl.Cl : 196 to 199 °C

melting point in this record for COC[C@@H]1CN(CCN2CCN(C(=O)c3cc(OC)cc(C(F)(F)F)c3)[C@H](Cc3ccc(C(F)(F)F)c(OC)c3)C2)CCO1.Cl.Cl : 135 to 140 °C

melting point in this record for COc1cc(C(=O)N2CCN(Cc3cnn(C)c3)C[C@H]2Cc2c[nH]c3ccccc23)cc(C(F)(F)F)c1.Cl : 210 to 220 °C

melting point in this record for COc1cc(C(=O)N2CCN(CCCc3cccnc3)C[C@H]2Cc2ccc(C(F)(F)F)cc2)cc(C(F)(F)F)c1.Cl.Cl : 70 to 80 °C

melting point in this record for COc1cc(C(=O)N2CCN(Cc3cccnc3)C[C@H]2Cc2ccc(Cl)c(O)c2)cc(C(F)(F)F)c1.Cl.Cl : 215 to 224 °C

melting point in this record for Cc1ccc(C[C@@H]2CN(Cc3cnn(CCO)c3)CCN2C(=O)c2cc(C(F)(F)F)cc(C(F)(F)F)c2)cc1O.Cl : 140 to 156 °C

melting point in this record for COc1cc(C(=O)N2CCN(CCCc3cccnc3)C[C@H]2Cc2c[nH]c3ccccc23)cc(C(F)(F)F)c1.Cl.Cl : 135 to 145 °C

melting point in this record for COc1cc(C[C@@H]2CN(CCN3C[C@@H](C)O[C@@H](C)C3)CCN2C(=O)c2cc(-c3ccncc3)cc(C(F)(F)F)c2)ccc1F.Cl.Cl.Cl : 137.6 to 142.5 °C

melting point in this record for CNc1cc(C(=O)N2CCN(CCN3C[C@@H](C)O[C@@H](C)C3)C[C@H]2Cc2ccc(Cl)cc2)cc(C(F)(F)F)c1.Cl.Cl : 245.6 to 248.7 °C

melting point in this record for COC[C@@H]1CN(CCN2CCN(C(=O)c3cc(C(F)(F)F)cc(C(F)(F)F)c3)[C@H](Cc3ccc(C)c(F)c3)C2)CCO1.Cl.Cl : 148 to 160 °C

Data provenance: patent US7166598B2
